This collection of values is drawn from paper PMC10786891.

- TARGET OR TEST SYSTEM: T1, EsCas13d, nuclease-dead (Eubacterium siraeum, UniProt B0MS50, R295A;H300A;R849A;H854A)
- T1 sequence: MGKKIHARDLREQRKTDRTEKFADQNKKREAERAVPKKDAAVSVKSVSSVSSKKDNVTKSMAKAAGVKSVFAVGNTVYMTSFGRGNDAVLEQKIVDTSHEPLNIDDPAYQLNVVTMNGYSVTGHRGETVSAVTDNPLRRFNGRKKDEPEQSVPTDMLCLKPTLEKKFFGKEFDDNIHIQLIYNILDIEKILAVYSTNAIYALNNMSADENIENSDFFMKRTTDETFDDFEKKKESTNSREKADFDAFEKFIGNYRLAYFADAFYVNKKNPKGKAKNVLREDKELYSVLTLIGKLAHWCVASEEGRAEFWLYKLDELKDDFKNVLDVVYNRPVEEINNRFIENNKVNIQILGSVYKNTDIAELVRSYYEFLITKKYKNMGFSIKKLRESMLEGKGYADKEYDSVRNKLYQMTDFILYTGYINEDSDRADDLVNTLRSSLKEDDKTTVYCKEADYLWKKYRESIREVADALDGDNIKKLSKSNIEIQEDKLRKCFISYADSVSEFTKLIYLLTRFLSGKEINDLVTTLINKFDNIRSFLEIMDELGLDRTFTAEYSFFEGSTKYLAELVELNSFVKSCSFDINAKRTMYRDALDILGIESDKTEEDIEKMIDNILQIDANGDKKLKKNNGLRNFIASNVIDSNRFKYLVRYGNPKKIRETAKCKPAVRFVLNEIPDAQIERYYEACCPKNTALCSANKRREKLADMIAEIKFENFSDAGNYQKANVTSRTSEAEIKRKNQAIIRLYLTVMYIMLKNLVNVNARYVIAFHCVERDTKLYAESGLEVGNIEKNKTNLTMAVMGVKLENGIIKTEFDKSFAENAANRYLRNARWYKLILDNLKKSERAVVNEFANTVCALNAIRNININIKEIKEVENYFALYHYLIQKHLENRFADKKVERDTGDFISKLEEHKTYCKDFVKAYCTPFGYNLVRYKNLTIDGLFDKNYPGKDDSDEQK
- PROCEDURE SUMMARY: crRNA (strand 1, pre-loaded); Mg2+; 40 mM Tris-HCl pH 7.5, 150 mM NaCl, 6 mM MgCl2, 1 mM DTT, 0.1% Tween-20, 0.2 mg/ml BSA; 25 C; 10 min per concentration, then washed
- RUN CONDITIONS: tags: His6-TwinStrep-SUMO cleaved; N-terminal SNAP kept (SNAP-Surface 488); label: 3' end held by stalled T7 RNA polymerase
pKd: −log10 of the molar value.
Rule: pKd of 8 or more gives True; anything lower gives False.

• target 2 MT 5'PFS AAA 3'PFS AAG (mixed) RNA 1: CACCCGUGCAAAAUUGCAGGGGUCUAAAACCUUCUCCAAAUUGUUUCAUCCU RNA 2: GGGAAUGGAUCCACAUCUACGAAUUCAAAAGGAUGAAACAAUUUGGAGAAGAAGAGAUCGGAAGAGCACACGU = True
• target 2 MT 5'PFS GGC 3'PFS UCA (mixed) RNA 1: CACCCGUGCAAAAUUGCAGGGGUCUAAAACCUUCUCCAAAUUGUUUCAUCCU RNA 2: GGGAAUGGAUCCACAUCUACGAAUUCGGCAGGAUGAAACAAUUUGGAGAAGUCAAGAUCGGAAGAGCACACGU = False
• target 1 insC 3' of 14,insG 3' of 3 (mixed) RNA 1: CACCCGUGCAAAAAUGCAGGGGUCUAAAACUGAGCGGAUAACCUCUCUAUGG RNA 2: GGGAAUGGAUCCACAUCUACGAAUUCGUACCAUAGAGACGGUUAUCCGCUGCACCGAGAUCGGAAGAGCACACGU = False
• target 1 MT 5'PFS AUA 3'PFS CCG (mixed) RNA 1: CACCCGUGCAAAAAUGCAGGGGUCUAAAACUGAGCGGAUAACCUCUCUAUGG RNA 2: GGGAAUGGAUCCACAUCUACGAAUUCAUACCAUAGAGAGGUUAUCCGCUCACCGAGAUCGGAAGAGCACACGU = False
• target 2 MT 5'PFS UAG 3'PFS CUU (mixed) RNA 1: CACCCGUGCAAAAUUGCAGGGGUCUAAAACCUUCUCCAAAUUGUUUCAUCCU RNA 2: GGGAAUGGAUCCACAUCUACGAAUUCUAGAGGAUGAAACAAUUUGGAGAAGCUUAGAUCGGAAGAGCACACGU = True
• target 1 U10A,C22U (mixed) RNA 1: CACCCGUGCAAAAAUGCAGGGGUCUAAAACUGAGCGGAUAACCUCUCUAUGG RNA 2: GGGAAUGGAUCCACAUCUACGAAUUCGUAUCAUAGAGAGGUAAUCCGCUCACCGAGAUCGGAAGAGCACACGU = False
• target 3 insC 3' of 4,insC 3' of 3 (mixed) RNA 1: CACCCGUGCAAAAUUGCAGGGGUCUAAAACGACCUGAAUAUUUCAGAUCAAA RNA 2: GGGAAUGGAUCCACAUCUACGAAUUCGUUUUUGAUCUGAAAUAUUCAGCGCUCUGCAGAUCGGAAGAGCACACGU = False
• target 1 MT 5'PFS GGC 3'PFS UCC (mixed) RNA 1: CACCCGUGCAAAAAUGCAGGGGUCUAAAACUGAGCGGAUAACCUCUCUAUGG RNA 2: GGGAAUGGAUCCACAUCUACGAAUUCGGCCCAUAGAGAGGUUAUCCGCUCAUCCAGAUCGGAAGAGCACACGU = False
• target 1 MT 5'PFS UAA 3'PFS AUC (mixed) RNA 1: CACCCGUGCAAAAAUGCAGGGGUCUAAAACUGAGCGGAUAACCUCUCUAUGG RNA 2: GGGAAUGGAUCCACAUCUACGAAUUCUAACCAUAGAGAGGUUAUCCGCUCAAUCAGAUCGGAAGAGCACACGU = False
